- test.name: self-splicing fitness, log relative to wild type (ln ratio); higher = more splicing; Tetrahymena group I intron in knt gene, E. coli kanamycin selection, DiMSum; sequences stand for … in CUCUCU…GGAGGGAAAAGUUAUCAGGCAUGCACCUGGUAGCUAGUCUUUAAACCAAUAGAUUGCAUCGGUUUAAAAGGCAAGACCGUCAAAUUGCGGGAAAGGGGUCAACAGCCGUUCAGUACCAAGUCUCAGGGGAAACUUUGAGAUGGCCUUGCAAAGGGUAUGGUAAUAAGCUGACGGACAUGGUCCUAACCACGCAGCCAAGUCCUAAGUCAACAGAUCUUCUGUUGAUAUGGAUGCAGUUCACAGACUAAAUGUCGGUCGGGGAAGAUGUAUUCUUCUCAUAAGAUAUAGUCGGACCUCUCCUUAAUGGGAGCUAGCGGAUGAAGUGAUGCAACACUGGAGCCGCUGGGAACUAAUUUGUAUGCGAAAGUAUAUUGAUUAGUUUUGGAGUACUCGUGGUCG;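 note: selection with 25 µg/mL kanamycin versus none on LB agar overnight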
- condition: 30 °C
observed.property: self-splicing fitness (ln)
One number for each entry.

Previously resolved entries follow.
sequence.content: AUUCAGCAAUAUUACGAGAU
self-splicing fitness (ln): -2.7
--
sequence.content: UAAAAGCAAUAUUACGUCUA
self-splicing fitness (ln): -0.487
--
sequence.content: AAUGAGCAAUAUUACGAACU
self-splicing fitness (ln): -1.11
--
sequence.content: CCACAGCAAUAUUACGGGCA
self-splicing fitness (ln): -3.53
--
sequence.content: UUGGAGCAAUAUUACGAGCG
self-splicing fitness (ln): -2.64
--
sequence.content: CAGAAGCAAUAUUACGGGCA
self-splicing fitness (ln): -2.53

State the recorded self-splicing fitness (ln) for every item in the following list.
1. AUCCAGCAAUAUUACGUACU
2. CGUUAGCAAUAUUACGACCC

## Result
[-1.56, -2.92]
